Where these numbers come from: patent US20160297892A1

# System: T1, human Protein S (plasma derived) (human, UniProt P07225 42-676)
# T1 construct: Bought plasma-derived human Protein S (Haematologic Technologies or Enzyme Research Laboratories); also called Plasma PS; free Protein S
# T1 sequence: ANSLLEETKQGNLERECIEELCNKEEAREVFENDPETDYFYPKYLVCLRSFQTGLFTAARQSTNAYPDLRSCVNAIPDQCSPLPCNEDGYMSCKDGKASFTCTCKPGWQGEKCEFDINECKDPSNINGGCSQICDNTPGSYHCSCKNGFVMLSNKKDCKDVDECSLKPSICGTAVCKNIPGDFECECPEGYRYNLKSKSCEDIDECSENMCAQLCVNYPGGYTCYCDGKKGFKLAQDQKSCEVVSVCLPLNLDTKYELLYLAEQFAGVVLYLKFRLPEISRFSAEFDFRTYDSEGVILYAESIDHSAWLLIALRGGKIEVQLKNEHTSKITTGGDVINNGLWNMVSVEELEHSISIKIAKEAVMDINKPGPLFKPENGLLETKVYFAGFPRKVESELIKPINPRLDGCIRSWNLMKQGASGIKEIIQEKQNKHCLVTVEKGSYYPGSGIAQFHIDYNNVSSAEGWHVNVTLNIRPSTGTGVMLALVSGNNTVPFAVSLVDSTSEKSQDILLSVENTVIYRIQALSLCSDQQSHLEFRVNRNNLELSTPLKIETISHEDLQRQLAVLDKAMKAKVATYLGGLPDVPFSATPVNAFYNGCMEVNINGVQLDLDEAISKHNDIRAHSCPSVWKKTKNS
# Assay: ELISA, calcium-free TBS;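 further: binding of mouse antibodies detected by ELISA with an HRP-conjugated goat anti-mouse IgG secondary and TMB substrate development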

# Binder, binding result
rows = [
    ("M-hProtS-2F4A1 monoclonal antibody (antibody, V domains shown, Mouse IgG1, kappa) VH: EVKLEESGGGLVQPGGSMKLSCAASGFTFSDAWMDWVRQSPEKGLEWVAEIRSKANNHATYYAESVKGRFTISRDDSKSGVYLQMNSLRPEDTGIYYCTLTTAFLFDYWGQGTTLTVSS VL: QIALTQSPAIMSASPGEKVTMTCSVSSSVSYMHWYQQKPGSSPRLWIYDTSNLVSGVPGRFSGSGSGTSYSLTLSSMEAEDAATYYCQQYSGYLYTFGGGTKLEIKR", "binds"),
    ("M-hProtS-6F206A1 monoclonal antibody (antibody, mouse IgG1, V domains shown, Purified from hybridoma supernatant; mouse IgG1, kappa) VH: QVQLQQSGAEMVRPGSSVKISCKASGYAFSSHWMNWVKQRPGQGLEWIGQIYPGDGDTNYNGKFRGKAIVTADTSSSTAYLQLSSLTSEDTAVFFCAPGYHGTSYWFAYWGQGTLVTVSA VL: DIQMSQSPSSLSASLGDTVTITCHASQNINIWLSWYQQKPGNILTLLIYKASNLYTGVPSRFSGSGSGTDFTLTISSLQPEDIATYYCQQGQSFPLTFGTGTRLELKR", "binds"),
    ("M-hProtS-6F128A2 monoclonal antibody (antibody, mouse IgG1, V domains shown, Tested as antibody purified from hybridoma supernatant; mouse IgG1, kappa) VL: SIVMTQTPKFLLVSAGDRVTITCKASQSVSNDVAWYQQKPGQSPKLLIYYASNRYTGVPDRFTGSGYGTDFTFTISTVQAEDLAVYFCQQDYSSPYTFGGGTKLEIKR V domain: QVQLQQPGAELVRPGASVKLSCKASGYTFTSYWINWVKQRPEQGLEWIGRIDPYDSETHYNQKFKDKAILTVDKSSSTAYMQLSSLTSEDSAVYYCARWGGSGYAMDYWGQGTSATVSS", "binds"),
]
